The origin of these recorded values is ChEMBL document CHEMBL2062507.

- Tested on: RAW264.7
- ASSAY_OVERVIEW: Antiinflammatory activity in mouse RAW264.7 cells assessed as inhibition of LPS-stimulated MCP1 expression up to 10 uM by quantitative RT-PCR analysis
- Assay type: functional, cell-based
RECORDED_ENDPOINT: pIC50
Please report pIC50 as the negative decimal logarithm of the molar concentration, giving only the number.

## Input Give the value of pIC50 reported for the following: CCCCCCCCCCCCCC(=O)O[C@H]1CC[C@H](NC(=O)[C@H](OC)[C@H](O)[C@@H](O)[C@H](O)/C=C/C(C)C)C(=O)NC1 [BENGAMIDE A]
## Output 6.30

## Input Give the value of pIC50 reported for the following: CCCCCCCCCCCCCC(=O)O[C@H]1CC[C@H](NC(=O)[C@H](OC)[C@H](O)[C@@H](O)[C@H](O)/C=C/C(C)C)C(=O)N(C)C1 [BENGAMIDE B]
## Output 6.30
